- Tested on: K-562 leukemia
- assay-protocol: NCI tumour cell line growth inhibition, 48 h; in the data active = GI50 below about 0.43 µM; inactive = the rest
Possible outcomes: 1 (yes) for active, 0 (no) for inactive

{"columns": ["compound", "category"],
 "data": [
  ["CC(=O)c1cc(C(=O)c2ccc3c(c2)Sc2ccccc2N3)c2cc(C)ccn12", "1 (yes)"],
  ["O=C1OCC2=C1C(c1ccc(Cl)c(Cl)c1)c1cc3c(cc1N2CCO)CCC3 (configuration not stated)", "1 (yes)"],
  ["CCCCCCCCC(=O)OCC(CS[As](C)C)OC(=O)CCCCCCCC (configuration not stated)", "1 (yes)"],
  ["COc1cc2c(cc1Nc1nc(Nc3cccc(F)c3C(N)=O)c3cc[nH]c3n1)N(C(=O)CN1CCN(C(C)C)CC1)CC2", "0 (no)"],
  ["CCCCCCCCCCCCCCCCC(=O)O.CCCCCCCCCCCCCCCCCC(=O)O.CCCCCCCCCCCCCCCCCC(=O)O.CCCCCCCCCCCCCCCCCC(=O)O.CCCCCCCCCCCCCCCCCC(=O)O.CO[CH-]OC12COC1CC(O)C1(C)C(O)C(OC(C)O)C3=C(C)C(OC(=O)C(O)C([NH-])c4ccccc4)CC(O)(C(OC(=O)c4ccccc4)C21)C3(C)C.[Cu+].[Zn].[Zn].[Zn].[Zn].[Zn] (configuration not stated)", "1 (yes)"],
  ["CN(C)c1ccc(/C=C/C2=[N+](C)c3ccccc3C2(C)C)cc1", "0 (no)"],
  ["COc1ccc(/C=C2\\C=C(c3ccccc3)N(CCc3ccccc3)C2=O)cc1OC", "0 (no)"]
]}

Data provenance: PubChem BioAssay (NCI)
